Where do these numbers come from? They come from patent US6555563B1.

SYSTEM_TESTED: COX-2 (Ovis aries, UniProt P79208)
Construct: host or cells: insect cells (membranes, CHAPS-solubilized)
Sequence (P79208 17-603): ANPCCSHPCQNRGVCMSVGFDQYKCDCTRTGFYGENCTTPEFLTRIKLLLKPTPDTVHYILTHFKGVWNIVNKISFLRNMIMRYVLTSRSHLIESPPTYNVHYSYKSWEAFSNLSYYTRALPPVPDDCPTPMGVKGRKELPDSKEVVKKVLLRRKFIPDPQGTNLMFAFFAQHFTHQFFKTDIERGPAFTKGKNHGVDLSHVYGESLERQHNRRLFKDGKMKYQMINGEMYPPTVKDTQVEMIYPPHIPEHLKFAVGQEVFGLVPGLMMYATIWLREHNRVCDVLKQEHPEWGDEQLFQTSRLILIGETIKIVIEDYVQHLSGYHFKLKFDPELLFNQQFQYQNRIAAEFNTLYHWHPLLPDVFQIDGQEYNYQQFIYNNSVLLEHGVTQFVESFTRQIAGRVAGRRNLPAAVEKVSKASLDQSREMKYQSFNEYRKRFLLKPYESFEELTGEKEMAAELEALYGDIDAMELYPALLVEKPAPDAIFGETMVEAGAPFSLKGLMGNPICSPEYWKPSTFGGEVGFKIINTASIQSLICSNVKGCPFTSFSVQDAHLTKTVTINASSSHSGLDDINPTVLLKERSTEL
ASSAY_DETAILS: Assay for COX-2 activity (Ovine), PGE2 formation by ELISA
Type: biochemical
CONDITION_DESCRIPTION: IC50 COX1 / IC50 COX2
Recorded Selectivity by entry

MOLECULE | Selectivity
N=C(Nc1ccc(S(N)(=O)=O)cc1)c1nnc(-c2ccccc2)s1 [Example 32] | 17
CS(=O)(=O)c1ccc(-n2cc(C(F)(F)F)nc2-c2nnc(Nc3ccccc3)s2)cc1 [Example 52] | 12
CS(=O)(=O)c1ccc(-n2cc(C(F)(F)F)nc2-c2nnc(-c3ccccc3)s2)cc1 [Example 44] | 12
NS(=O)(=O)c1ccc(-n2cc(C(F)(F)F)nc2-c2nnc(-c3ccccc3)s2)cc1 [Example 48] | 90
